# SYSTEM_TESTED: ScBem1-D1
# TEST_DETAILS: SPOT peptide array binding signal intensity (averaged, normalized) (arbitrary units (background-subtracted, floor 0; scale differs between SH3 domains)); higher = stronger binding of the SH3 domain to the peptide
The binders listed here are annotated with their SPOT peptide array binding signal intensity.
Enter the number alone.

FSRRQSMDIPSKNRN 88.5
SRYRRPLTLLLLKPF 10
NIKVLLNPKLGKPVK 7
GLRRARYKFPGQQKI 24

Now for a further binder.
Data request, read-out SPOT peptide array binding signal intensity, for LKQRFFLMFPKSIIW
69
